Assay: Terminal elimination half life in Sprague-Dawley rat at 21.2 mg/kg, po
Format: ADME, organism-based
Parameters: dose 21.2 mg/kg, route oral
Conditions: in vivo, read-out: beta t1/2 (converted)
recordedMetric: half-life (h)
Numbers only, in h.

Entry Cc1cc(Nc2ccc(C(F)(F)F)cc2)n2nc(C(C)(F)F)nc2n1 , half-life reported as 17

* * *

Assay: Terminal elimination half life in Sprague-Dawley rat at 46.7 mg/kg, po
Assay type: ADME, organism-based
Design: dose 46.7 mg/kg, route oral
Settings: in vivo, read-out: beta t1/2 (converted)
recordedMetric: half-life (h)
One number for each entry, in h.

Entry Cc1cc(Nc2ccc(S(F)(F)(F)(F)F)cc2)n2nc(C(C)(F)F)nc2n1 [DSM-265] , half-life reported as 27.9

* * *

Assay: in vivo
Conditions: NOD-SCID IL-2Rgamma-null, mouse, po, 5.7 mg/kg
recordedMetric: Tmax (h)
Answers are plain numbers, in h.

Entry Cc1cc(Nc2ccc(C(F)(F)F)cc2)n2nc(C(C)(F)F)nc2n1 , Tmax reported as 1.7

* * *

Consider the following molecules; for each one, report its log10 Intrinsic clearance.
Tested on: Liver microsomes
Assay: Intrinsic clearance in human liver microsomes
Format: ADME, Microsome
Values are log10 of Intrinsic clearance in µL/min/mg.

CSc1nc2nc(C)cc(Nc3ccc(C(F)(F)F)cc3)n2n1 | 1.27
CCc1nc2nc(C)cc(Nc3ccc(Cl)cc3)n2n1 | 1.11

Required: log10 Intrinsic clearance, one value per molecule below.
1. CCc1nc2nc(C)cc(Nc3cccc(Cl)c3)n2n1
2. CSc1nc2nc(C)cc(Nc3ccc(S(F)(F)(F)(F)F)cc3)n2n1
3. Cc1cc(Nc2ccc(Cl)cc2)n2nc(C(C)C)nc2n1
4. Cc1cc(Nc2cccc(Cl)c2)n2nc(C(C)(F)F)nc2n1
5. COCc1nc2nc(C)cc(Nc3ccc(S(F)(F)(F)(F)F)cc3)n2n1
6. COCCc1nc2nc(C)cc(Nc3ccc(C(F)(F)F)cc3)n2n1

Key:
1.89
1.35
1.15
1.65
0.75
0.95

Required: log10 Intrinsic clearance, one value per molecule below.
1. CCOc1nc2nc(C)cc(Nc3ccc(C(F)(F)F)cc3)n2n1
2. Cc1cc(Nc2ccc(Cl)cc2)n2nc(C(C)(F)F)nc2n1

Key:
1. 0.85
2. 1.20

* * *

Consider the following compounds; for each one, report its pEC50.
System: Plasmodium falciparum
Assay: Antimalarial activity against Plasmodium falciparum 3D7 by [3H]hypoxanthine incorporation assay in presence of albumax
Type: functional, organism-based
Answers are plain numbers, as −log10 of the molar value.

Cc1cc(Nc2ccc(C(F)(F)F)cc2)n2nc(C(C)(F)F)nc2n1 | 8.21

Here is the next item to consider.
Entry Cc1cc(Nc2ccc(S(F)(F)(F)(F)F)cc2)n2nc(C(C)(F)F)nc2n1 [DSM-265] , pEC50 reported as 8.11

* * *

Target chain: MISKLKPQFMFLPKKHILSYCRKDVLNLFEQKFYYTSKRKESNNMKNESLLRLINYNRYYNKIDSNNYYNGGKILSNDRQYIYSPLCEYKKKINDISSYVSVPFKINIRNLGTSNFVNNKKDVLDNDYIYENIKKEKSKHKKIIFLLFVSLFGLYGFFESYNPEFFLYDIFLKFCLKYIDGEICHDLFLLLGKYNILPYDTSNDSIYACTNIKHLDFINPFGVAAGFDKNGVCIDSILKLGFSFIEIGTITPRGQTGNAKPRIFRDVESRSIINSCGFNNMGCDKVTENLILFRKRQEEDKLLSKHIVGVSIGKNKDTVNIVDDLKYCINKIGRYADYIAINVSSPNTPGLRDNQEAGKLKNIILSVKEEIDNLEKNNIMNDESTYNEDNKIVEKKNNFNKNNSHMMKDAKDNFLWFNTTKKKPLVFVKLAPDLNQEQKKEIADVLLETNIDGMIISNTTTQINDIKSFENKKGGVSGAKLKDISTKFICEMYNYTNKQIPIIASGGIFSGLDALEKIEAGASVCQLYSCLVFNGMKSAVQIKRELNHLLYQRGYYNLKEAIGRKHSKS
recordedMetric: pIC50
Numbers only, as −log10 of the molar value.

These recorded examples may help you get a feel for the data.
COCCc1nc2nc(C)cc(Nc3ccc(S(F)(F)(F)(F)F)cc3)n2n1 | 5.60
CCOc1nc2nc(C)cc(Nc3ccc(Cl)cc3)n2n1 | 6.57
CCC(C)c1nc2nc(C)cc(Nc3ccc(C(F)(F)F)cc3)n2n1 (stereo unspecified) | 6.42

Required: pIC50, one value per compound below.
1. CCc1nc2nc(C)cc(Nc3ccc(Cl)cc3)n2n1
2. Cc1cc(Nc2cccc(Cl)c2)n2nc(S(C)(=O)=O)nc2n1

Key:
1. 6.55
2. 6.80
